This collection of values is drawn from ChEMBL document CHEMBL1144146.

test: Displacement of [3H]DHT from 5-alpha-dihydrotestosterone receptor at 100 ug/mL
List of Activity values.

COMPOUND: C=C(C)C(CC=C(C)C)Cc1c(O)cc(OC)c2c1O[C@H](c1ccc(O)cc1)CC2=O (stereo not given in full) [KUSHENOL U]
Activity [%]: 85.1

COMPOUND: C=C(C)C(CCC(C)(C)O)Cc1c(O)cc(OC)c2c1O[C@H](c1ccc(O)cc1O)CC2=O (stereo not given in full)
Activity [%]: 27.9

COMPOUND: C=C(C)C(CCC(C)(C)O)Cc1c(O)cc(O)c2c1O[C@H](c1ccc(O)cc1O)CC2=O (stereo not given in full)
Activity [%]: 75.4

COMPOUND: CC(C)=CCc1c(O)cc(O)c2c1O[C@H](c1ccc(O)cc1O)CC2=O [LEACHIANONE G]
Activity [%]: 84.8

COMPOUND: C=C(C)[C@H](CCC(C)(C)O)Cc1c(O)cc(O)c2c1O[C@H](c1ccccc1O)CC2=O
Activity [%]: 84.9

COMPOUND: C=C(C)C(CC=C(C)C)Cc1c(O)cc(OC)c2c1O[C@H](c1ccc(O)cc1O)CC2=O (stereo not given in full) [KURARINONE]
Activity [%]: 89.2

COMPOUND: C=C(C)C(CC=C(C)C)Cc1c(O)cc(OC)c2c1O[C@H](c1ccc(O)cc1O)[C@@H](O)C2=O (stereo not given in full)
Activity [%]: 81.4

COMPOUND: C=C(C)C(CC=C(C)C)Cc1c(O)cc(O)c2c1O[C@H](c1ccccc1O)CC2=O (stereo not given in full)
Activity [%]: 89.3

COMPOUND: C=C(C)C(CC=C(C)C)Cc1c(O)cc(O)c2c1O[C@H](c1ccc(O)cc1O)CC2=O (stereo not given in full)
Activity [%]: 85.8

COMPOUND: CC(C)=CCC(Cc1c(O)cc(O)c2c1O[C@H](c1ccc(O)cc1O)CC2=O)C(C)CO (stereo not given in full) [KUSHENOL Q]
Activity [%]: 82.4

COMPOUND: CC(C)=CCc1c(O)cc(O)c2c1O[C@H](c1ccccc1O)CC2=O [KUSHENOL S]
Activity [%]: 47.7

COMPOUND: CC1(C)C=Cc2c(ccc3c2OC[C@@H](c2ccc(O)cc2O)C3)O1
Activity [%]: 88.2

COMPOUND: C=C(C)C(CC=C(C)C)Cc1c(O)cc(OC)c2c1O[C@H](c1ccccc1O)CC2=O (stereo not given in full) [KUSHENOL R]
Activity [%]: 67.5

COMPOUND: C=C(C)C(CC=C(C)C)Cc1c(O)cc(O)c2c1O[C@H](c1ccc(O)cc1O)[C@@H](O)C2=O (stereo not given in full) [KUSHENOL X]
Activity [%]: 90.5

COMPOUND: C=C(C)C(CC=C(C)C)Cc1c(O)cc(OC)c2c1O[C@H](c1ccc(O)cc1OC)CC2=O (stereo not given in full)
Activity [%]: 58.9

----------
test: Inhibition of testosterone-5-alpha-reductase at 50 ug/mL
TEST READOUT: inhibition (%)

COMPOUND: CC(C)=CCc1c(O)cc(O)c2c1O[C@H](c1ccc(O)cc1O)CC2=O
READOUT VALUE: 25.3
//
COMPOUND: C=C(C)C(CC=C(C)C)Cc1c(O)cc(OC)c2c1O[C@H](c1ccc(O)cc1O)[C@@H](O)C2=O (stereo partly drawn)
READOUT VALUE: 14
//
COMPOUND: CC(C)=CCC(Cc1c(O)cc(O)c2c1O[C@H](c1ccc(O)cc1O)CC2=O)C(C)CO (stereo partly drawn)
READOUT VALUE: 0.9
